Measured values drawn from ChEMBL document CHEMBL4602663 for this set.

tested on: Enterococcus faecalis; assay: Antibacterial activity against Enterococcus faecalis ATCC 19433 assessed as reduction in microbial growth; type: functional
Endpoint Label: MIC

> print(dat)
                                   compound  endpoint.label  experimental.result
1  O=C1C=C(c2cc(Br)c(O)c(Br)c2)/C(=C/c2cc(Br)c(O)c(Br)c2)O1 [RUBROLIDE A]             MIC          > 128 µg/mL
2  O=C1O/C(=C\c2ccc(O)c(Br)c2)C(c2cc(Br)c(O)c(Br)c2)=C1C(=O)c1cc(Br)c(O)c(Br)c1 [CADIOLIDE D]             MIC          > 128 µg/mL
3  O=C(O)C1=C(c2ccc(O)c(Br)c2)C(=O)C(c2cc(Br)c(O)c(Br)c2)(c2cc(Br)c(O)c(Br)c2)C1=O             MIC          > 128 µg/mL
4  CC1(C)S[C@@H]2[C@H](NC(=O)[C@H](N)c3ccccc3)C(=O)N2[C@H]1C(=O)O             MIC            0.5 µg/mL

###

system: K562; assay: Cytotoxicity against human K562 cells assessed as reduction in cell viability after 72 hrs by sulforhodamine B assay; type: functional, cell-based; details: K562, 72 h
pIC50: −log10 of the molar value.
# pIC50 per entry
Endpoint Label: pIC50

> print(dat)
                              sample.smiles  endpoint.label  experimental.result
1  COC(=O)C1=C(c2cc(Br)c(O)c(Br)c2)C(=O)C(c2cc(Br)c(O)c(Br)c2)(c2cc(Br)c(O)c(Br)c2)C1=O           pIC50               < 5.00
2  COC(=O)C1=C(c2cc(Br)c(O)c(Br)c2)[C@](OC)(c2ccc(O)c(Br)c2)O[C@@]1(C(=O)OC)c1cc(Br)c(O)c(Br)c1           pIC50               < 5.00
3  COc1ccc(C[C@@]2(O)OC(=O)C([C@@H](O)c3cc(Br)c(OC)c(Br)c3)=C2c2cc(Br)c(O)c(Br)c2)cc1Br           pIC50               < 5.00
4  O=C1C=C(c2cc(Br)c(O)c(Br)c2)C(=O)C1(c1cc(Br)c(O)c(Br)c1)c1cc(Br)c(O)c(Br)c1           pIC50               < 5.00

###

biological target: Isocitrate lyase (Candida albicans)
Sequence (Q9P8Q7 whole entry): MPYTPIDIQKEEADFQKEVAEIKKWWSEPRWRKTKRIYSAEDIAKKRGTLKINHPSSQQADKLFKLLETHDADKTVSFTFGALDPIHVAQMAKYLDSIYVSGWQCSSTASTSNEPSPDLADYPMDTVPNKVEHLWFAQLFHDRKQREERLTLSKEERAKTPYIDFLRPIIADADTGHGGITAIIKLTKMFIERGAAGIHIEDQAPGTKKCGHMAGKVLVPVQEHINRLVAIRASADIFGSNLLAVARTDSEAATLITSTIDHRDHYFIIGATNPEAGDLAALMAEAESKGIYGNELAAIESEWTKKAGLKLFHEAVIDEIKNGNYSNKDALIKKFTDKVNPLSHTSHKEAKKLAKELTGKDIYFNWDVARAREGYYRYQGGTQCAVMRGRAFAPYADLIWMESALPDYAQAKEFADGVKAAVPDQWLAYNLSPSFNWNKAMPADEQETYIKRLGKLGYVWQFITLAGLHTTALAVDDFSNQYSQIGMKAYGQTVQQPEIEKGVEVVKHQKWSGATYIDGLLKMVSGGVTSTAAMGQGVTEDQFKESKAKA
Hi! Just check whether IC50 is below 60 µM. Below gives fulfilled, equal or above gives not fulfilled.

> print(dat)
                                    molecule            cat
 1  COC(=O)C1=C(c2cc(Br)c(O)c(Br)c2)[C@](OC)(c2cc(Br)c(O)c(Br)c2)O[C@@]1(C(=O)OC)c1cc(Br)c(O)c(Br)c1  not fulfilled
 2  COC(=O)C1=C(c2cc(Br)c(O)c(Br)c2)C(=O)C(c2cc(Br)c(O)c(Br)c2)(c2cc(Br)c(O)c(Br)c2)C1=O      fulfilled
 3  COc1c(Br)cc([C@H](O)C2=C(c3cc(Br)c(O)c(Br)c3)/C(=C/c3ccc(O)c(Br)c3)OC2=O)cc1Br  not fulfilled
 4  COC(=O)C1=C(c2cc(Br)c(O)c(Br)c2)[C@](OC)(c2ccc(O)c(Br)c2)O[C@@]1(C(=O)OC)c1cc(Br)c(O)c(Br)c1  not fulfilled
 5  O=C1C=C(c2cc(Br)c(O)c(Br)c2)C(=O)C1(c1cc(Br)c(O)c(Br)c1)c1cc(Br)c(O)c(Br)c1      fulfilled
 6  O=C1O/C(=C\c2cc(Br)c(O)c(Br)c2)C(c2ccc(O)c(Br)c2)=C1C(=O)c1cc(Br)c(O)c(Br)c1 [CADIOLIDE E]      fulfilled
 7  COc1ccc(C[C@@]2(O)OC(=O)C([C@@H](O)c3cc(Br)c(OC)c(Br)c3)=C2c2cc(Br)c(O)c(Br)c2)cc1Br  not fulfilled
 8  O=C1C=C(c2cc(Br)c(O)c(Br)c2)/C(=C/c2cc(Br)c(O)c(Br)c2)O1 [RUBROLIDE A]  not fulfilled
 9                      O=C(O)CC[N+](=O)[O-]      fulfilled
10  COC(=O)C1=C(c2cc(Br)c(O)c(Br)c2)C(=O)[C@](c2ccc(O)c(Br)c2)(c2cc(Br)c(O)c(Br)c2)C1=O      fulfilled
11  COc1ccc(/C=C2\OC(=O)C([C@@H](O)c3cc(Br)c(OC)c(Br)c3)=C2c2cc(Br)c(O)c(Br)c2)cc1Br  not fulfilled
12  COC(=O)C1=C(c2ccc(O)c(Br)c2)C(=O)[C@](c2ccc(O)c(Br)c2)(c2cc(Br)c(O)c(Br)c2)C1=O      fulfilled
13  COc1c(Br)cc([C@H](O)C2=C(c3ccc(O)c(Br)c3)/C(=C/c3cc(Br)c(O)c(Br)c3)OC2=O)cc1Br  not fulfilled
14  COC(=O)C1=C(c2cc(Br)c(O)c(Br)c2)C(=O)[C@](OC)(c2ccc(O)c(Br)c2)O[C@]1(OC)c1cc(Br)c(O)c(Br)c1  not fulfilled
